The values you see were collected from PubChem BioAssay (NCI).

# System: SK-MEL-2 melanoma
# PROTOCOL_DESCRIPTION: NCI tumour cell line growth inhibition, 48 h; in the data active = GI50 below about 0.43 µM; inactive = the rest
Outcomes you can answer with include only these: active, inactive

input: # fetch the recorded call for COc1cc[nH]c1/C=C1\C(=O)Nc2ccc(F)c(C#C[C@@H](O)[C@@H](N)[C@@H](C)O)c21 here
output: active

input: # fetch the recorded call for COc1cc2c3c(n(C)c(=O)c2cc1OC)-c1cc2c(cc1/C3=C\CCCCN)OCO2 here
output: inactive

input: # fetch the recorded call for CC1(C)N=C(N)N=C(N)N1c1cccc(/C=C/C=C/c2cccc([N+](=O)[O-])c2)c1 here
output: inactive

input: # fetch the recorded call for COC(=O)c1cnc(=O)n(C2CC(O)C(CO)O2)c1 (centres undefined) here
output: inactive

input: # fetch the recorded call for CCOC(=O)CCC(NC(=O)c1ccc(N=Cc2nc3cc(C(F)(F)F)ccc3nc2-c2ccccc2)cc1)C(=O)OCC (centres undefined) here
output: inactive

input: # fetch the recorded call for Cc1ccc(S(=O)(=O)NC(CCC(=O)Nc2ccc(Cl)cc2)C(=O)Nc2ccc(Cl)cc2)cc1 (centres undefined) here
output: inactive

input: # fetch the recorded call for CCCCCCCCCCCCCCCCCCNC(=O)[C@H]1CSC(c2ccc(OC)c(F)c2)N1 (some centres undefined) here
output: inactive

input: # fetch the recorded call for COc1cc(C2CC(c3cccc(Nc4ccncc4)c3)=NN2c2cc(Cl)cc(Cl)c2)cc(OC)c1OC (centres undefined) here
output: inactive

input: # fetch the recorded call for CC12OC(C(=O)C13CC3)C1C(=O)c3ccccc3C(=O)C12 (centres undefined) here
output: inactive

====

# Test system: OVCAR-3 ovarian
# PROTOCOL_DESCRIPTION: NCI tumour cell line growth inhibition, 48 h
Provide the reported TGI of each item.
Enter your answer as a number in µM; do not include the unit.

input: Item: O=C(Cc1ccccc1)NN1C(=O)C(Cl)C1c1cccc(O)c1 (configuration not stated) Test system: OVCAR-3 ovarian Read-out: TGI Value: ?
output: 28.1

input: Item: Cc1nc(-c2ccccc2)c(C)n2c1nc1ccccc12 Test system: OVCAR-3 ovarian Read-out: TGI Value: ?
output: 54.8

input: Item: O=C(CCCc1c[nH]c2ccccc12)NC1CC(=O)c2c(Br)sc(Br)c21 (configuration not stated) Test system: OVCAR-3 ovarian Read-out: TGI Value: ?
output: 29.3

input: Item: O=[N+]([O-])c1ccc(Sc2ncccn2)c([N+](=O)[O-])c1 Test system: OVCAR-3 ovarian Read-out: TGI Value: ?
output: 10.3

input: Item: Cc1c(NC(=O)C(=O)N=NC(=O)c2ccncc2)c(O)c2ccccc2c1O Test system: OVCAR-3 ovarian Read-out: TGI Value: ?
output: 29.1

input: Item: COc1cc2c3c(n(C)c(=O)c2cc1OC)-c1cc2c(cc1/C3=C\CCCCN)OCO2 Test system: OVCAR-3 ovarian Read-out: TGI Value: ?
output: 33.4

input: Item: O=C1C2CC(Cl)C(SSC3CC4C(=O)N(SC(Cl)(Cl)C(Cl)Cl)C(=O)C4CC3Cl)CC2C(=O)N1SC(Cl)(Cl)C(Cl)Cl (configuration not stated) Test system: OVCAR-3 ovarian Read-out: TGI Value: ?
output: 5.07

input: Item: O=S(=O)(c1cc(Cl)ccc1Cl)N1CCN(c2ccc(Cl)c(Cl)c2)CC1 Test system: OVCAR-3 ovarian Read-out: TGI Value: ?
output: 38.5

input: Item: CN(C)CCOc1ccc(I)cc1Cc1ccccc1 Test system: OVCAR-3 ovarian Read-out: TGI Value: ?
output: 26.7
